- Assay summary: Pharmacokinetic test in mice
- Assay type: in vivo, Balb/c mice
- Experimental setup: male, Balb/c, mouse, iv; mice, i.v. 2.5 mg/kg, plasma
Assay endpoint: AUC(0-t) (ng·h/mL)

Here's what some known entries look like.
# Molecule, AUC(0-t) [ng·h/mL]
records = [
    ("Cn1cc(NC(=O)c2ccc(N3CCN(Cc4ccc5nc(C(F)F)c(=O)[nH]c5c4F)CC3)c(F)n2)cn1 [Compound 15]", 16300),
    ("O=C(NC1CC1)c1ccc(N2CCN(Cc3ccc4nc(C(F)F)c(=O)[nH]c4c3F)CC2)c(F)n1 [Compound 12]", 19000),
    ("Cn1cc(C(=O)Nc2ccc(N3CCN(Cc4ccc5nc(C(F)F)c(=O)[nH]c5c4F)CC3)c(F)n2)c(F)n1 [Compound 18]", 8150),
]

(a) Cc1nc2ccc(CN3CCN(c4ccc(C(=O)Nc5cnn(C)c5)nc4F)CC3)c(F)c2[nH]c1=O [Compound 2]
(b) Cc1nc2ccc(CN3CCN(c4ccc(C(=O)N[C@H]5C[C@H]5F)nc4F)CC3)c(F)c2[nH]c1=O [Compound 5]
Challenge: Among a and b , which shows a numerically higher AUC(0-t) result? Answer format: the label of the selected item.
Response given: b
(b: 2750 ng·h/mL, a: 1870 ng·h/mL)

---

- Assay summary: Pharmacokinetic test in mice
- Format: in vivo, Balb/c mice
- Experimental setup: male, Balb/c, mouse, brain/plasma; mice, 24 h after administration; read-out: Brain/Plasma Ratio (24 h)
Assay endpoint: Kp at 24 h

(1) Cc1nc2ccc(CN3CCN(c4ccc(C(=O)Nc5cnn(C)c5)nc4F)CC3)c(F)c2[nH]c1=O
(2) Cc1nc2ccc(CN3CCN(c4ccc(C(=O)N[C@H]5C[C@H]5F)nc4F)CC3)c(F)c2[nH]c1=O
Challenge: Decide: 1 or 2 , by lowest recorded Kp at 24 h. Answer format: the label of the selected item.
Response given: 2

---

- Assay summary: Pharmacokinetic test in rats
- Type: in vivo, SD rats
- Experimental setup: male, SD, rat, plasma, po; rats, i.g. 10 mg/kg
Assay endpoint: bioavailability (%)

# Compound, bioavailability / %
data = [
    ("Cn1cc(C(=O)Nc2ccc(N3CCN(Cc4ccc5nc(C(F)F)c(=O)[nH]c5c4F)CC3)c(F)n2)cn1 [Compound 14]", 70.9),
    ("Cn1cc(NC(=O)c2ccc(N3CCN(Cc4ccc5nc(C(F)F)c(=O)[nH]c5c4F)CC3)c(F)n2)cn1 [Compound 15]", 87.2),
]

---

- Assay summary: Pharmacokinetic test in monkeys
- Type: in vivo, cynomolgus monkeys
- Experimental setup: male, cynomolgus monkey, iv; monkeys, i.v. (0.5 mg/kg), plasma
Assay endpoint: AUC(0-t) (ng·h/mL)
Answer in ng·h/mL, number only, no unit symbol.

Kindly note the recorded AUC(0-t) for O=C(NC1CC1)c1ccc(N2CCN(Cc3ccc4nc(C(F)F)c(=O)[nH]c4c3F)CC2)c(F)n1 [Compound 12] , which is 5470

---

- Assay summary: Pharmacokinetic test in monkeys
- Type: in vivo, cynomolgus monkeys
- Experimental setup: male, cynomolgus monkey, iv; monkeys, i.v. (1 mg/kg), plasma
Assay endpoint: clearance (L/h/kg)
Answer in L/h/kg, number only, no unit symbol.

Kindly note the recorded clearance for `Cn1cc(C(=O)Nc2ccc(N3CCN(Cc4ccc5nc(C(F)F)c(=O)[nH]c5c4F)CC3)c(F)n2)cn1` , which is 0.0209

Entry source: patent US20250346571A1
